- Assay Name: Solubility in water and solvents
- Type: physicochemical
- Condition: DMSO
Test Readout: Solubilités : diméthyl sulfoxyde (DMSO) (%)
# output: bare number, implied unit %

Compound: CC1CC(OC(=O)c2ccc(-c3ccccc3Cl)cc2)CC(C)(C)C1 (centres unmarked)
Test Readout: Solubilités : diméthyl sulfoxyde (DMSO)
Numeric Readout: 20

Compound: O=C(OCc1ccccc1)c1ccc(-c2ccccc2Cl)cc1
Test Readout: Solubilités : diméthyl sulfoxyde (DMSO)
Numeric Readout: 20

Compound: O=C(OCc1cccnc1)c1ccc(-c2ccccc2Cl)cc1
Test Readout: Solubilités : diméthyl sulfoxyde (DMSO)
Numeric Readout: 12

Let's switch to this compound now.
[Q] Query: Solubilités : diméthyl sulfoxyde (DMSO); subject: CCCCCCCCOC(=O)c1ccc(-c2ccccc2Cl)cc1
[A] 20
